# Target Of Assay: T1, hGITR ECD hFc (Homo sapiens (Human)., UniProt Q9Y5U5, Thr45Ala)
# T1 construct: human GITR (glucocorticoid-induced TNF receptor-related), extracellular domain, Gln26-Glu161 with Thr45Ala, UniProt Q9Y5U5.1; also called human GITR protein; source: FreeStyle 293F, transiently transfected, purified by protein A
# T1 sequence (Q9Y5U5 26-161 T45A): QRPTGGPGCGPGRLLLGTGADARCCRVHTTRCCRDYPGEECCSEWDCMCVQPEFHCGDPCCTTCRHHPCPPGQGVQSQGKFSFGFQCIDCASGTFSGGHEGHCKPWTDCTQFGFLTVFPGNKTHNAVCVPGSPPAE
# Test Method Notes: ELISA; indirect ELISA; antigen hFc fusion protein coated on 96-well plates (1 μg·mL^−1 overnight at 4 °C in Fig. 3B), antibody added, detected with anti-rat IgG/hIgG-peroxidase antibody
# Condition: both partners purified
pEC50: −log10 of the molar value.
Below, each entry is listed with its recorded pEC50.
Experimental Readout: pEC50

- hab076e1 (antibody, V domains shown, as the VH of m15 (3503‐hab076‐VH); 3503‐hab076‐Vk(C2Y); the substitution is against the VL of m15 (Cys in FR3 of VL); position not given; Whole antibody, human IgG1 heavy chain constant region, human kappa light chain constant region; source: FreeStyle 293F, transiently co-transfected, purified from culture supernatant) VH: QVQLVESGGGVVQPGRSLRLSCAASGFTFSSYGMHWVRQAPGKGLEWVAVIWYETSNKYYADSVKGRFTISRDNSKNTLYLQMNSLRAEDTAVYYCARYGASSGWYWYFDLWGRGTLVTVSS VL: DIQLTQSPSFLSASVGDRVTITCRASQGISSYLAWYQQKPGKAPKLLIYAASTLQSGVPSRFSGSGSGTEFTLTISSLQPEDFATYYCQQLNSYPFTFGQGTKLEIK: 10.06
- hab064 (antibody, V domains shown, 3503‐hab064‐VH; 3503‐hab064‐Vk; Whole antibody, human IgG1 heavy chain constant region, human kappa light chain constant region; source: FreeStyle 293F, transiently co-transfected, purified from culture supernatant) VH: QVQLVESGGGVVQPGRSLRLSCAASGFTFSSYGMHWVRQAPGKGLEWVAVIWYETSNKYYADSVKGRFTISRDNSKNTLYLQMNNLRAEDTAVYYCARYGGNSGWYWYFDLWGRGTLVTVSS VL: DIQLTQSPSFLSASVGDRVTITCRASQGISSFLAWYQQKPGTAPKLLIYAASTLQSGVPSRFSGSGSGTEFTLTISSLQPEDFATYCCQQLNSYPFTFGQGTKLEIK: 9.97
- mAb076 (antibody, V domains shown, as the VH of m15; as the VL of m15; Human-murine chimeric antibody from H2L2 mice: human variable regions, rat constant regions; source: hybridoma cell culture supernatant, purified (Protein A)) VH: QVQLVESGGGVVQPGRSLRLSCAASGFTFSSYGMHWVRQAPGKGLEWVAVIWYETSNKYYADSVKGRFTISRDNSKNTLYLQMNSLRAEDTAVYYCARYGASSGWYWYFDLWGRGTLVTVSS VL: DIQLTQSPSFLSASVGDRVTITCRASQGISSYLAWYQQKPGKAPKLLIYAASTLQSGVPSRFSGSGSGTEFTLTISSLQPEDFATYCCQQLNSYPFTFGQGTKLEIK: 11.00
